Where a name gives a salt, the structure may show the parent alone.
quantityMeasured: melting point

Example entries and their recorded answers appear below.
CCC(CC)(NC(=O)c1c(C)nn2c1N[C@@H](c1ccccc1)CC2(C)C)c1ccc(Cl)cc1 (as salt: HCl) [Example 1043] | 193 to 194 °C
CCC(CC)(NC(=O)c1c(C)nn2c1N[C@H](c1ccccc1Cl)CC2(C)C)c1ccc(C)cc1 (as salt: HCl) | 173 to 174 °C
CCC(CC)(NC(=O)c1cnn2c1NC(c1ccccc1)CC2(C)C)c1ccc(-c2ccoc2)cc1 (centres unmarked) | 185 to 186 °C
CCC(CC)(NC(=O)c1cnn2c1NC(c1ccccc1OC)CC2(C)C)c1ccc(C(F)(F)F)cc1 (centres unmarked) | 211 to 213 °C
CC1(C)CC(c2ccccc2)Nc2c(C(=O)NC3(C#N)CCCCC3)cnn21 (centres unmarked) | > 300 °C
CCC1(NC(=O)c2cnn3c2NC(c2ccccc2)CC3(C)C)CCS(=O)(=O)CC1 (centres unmarked) | 155 to 156 °C
CCC1(CC)C[C@H](OC)CN1C(=O)c1cnn2c1N[C@@H](c1ccccc1)CC2(C)C | 122 to 124 °C

### Prompt Note melting point for the compound shown: CCOC(=O)c1cnn2c1NC(c1ccc(OC)cc1)CC2C(F)(F)F (centres unmarked)
### Response 105 to 109 °C
